// provenance: paper PMC6321168

In this section, each of the molecules is paired with its reported concentration at 72 h.
Assay: Fecal excretion study in rats after oral NS, SF or CNS (LC–MS/MS)
Type: in vivo
Conditions: male, Sprague Dawley; rat feces, oral NS 60 mg/kg, 72 h
Give just the numeric value; µg/mL need not be written.

See these solved cases before continuing.
1) CC(C)=CCC[C@](C)(O[C@@H]1O[C@H](CO)[C@@H](O)[C@H](O)[C@H]1O)[C@H]1CC[C@]2(C)[C@@H]1[C@H](O)C[C@@H]1[C@@]3(C)CC[C@H](O[C@@H]4O[C@H](CO)[C@@H](O)[C@H](O)[C@H]4O[C@@H]4O[C@H](CO)[C@@H](O)[C@H](O)[C@H]4O)C(C)(C)[C@@H]3CC[C@]12C [ginsenoside Rd]    0.122
2) CC(C)=CCC[C@](C)(O[C@@H]1O[C@H](CO[C@@H]2O[C@H](CO)[C@@H](O)[C@H](O)[C@H]2O)[C@@H](O)[C@H](O)[C@H]1O)[C@H]1CC[C@]2(C)[C@@H]1[C@H](O)C[C@@H]1[C@@]3(C)CC[C@H](O[C@@H]4O[C@H](CO)[C@@H](O)[C@H](O)[C@H]4O[C@@H]4O[C@H](CO)[C@@H](O)[C@H](O)[C@H]4O)C(C)(C)[C@@H]3CC[C@]12C [ginsenoside Rb1]    0.12
3) CC(C)=CCC[C@](C)(O[C@@H]1O[C@H](CO)[C@@H](O)[C@H](O)[C@H]1O)[C@H]1CC[C@]2(C)[C@@H]1[C@H](O)C[C@@H]1[C@@]3(C)CC[C@H](O)C(C)(C)[C@@H]3[C@@H](O[C@@H]3O[C@H](CO)[C@@H](O)[C@H](O)[C@H]3O)C[C@]12C [ginsenoside Rg1]    0.116

Request: Could you share which concentration at 72 h value was measured for CC(C)=CCC[C@](C)(O[C@@H]1O[C@H](CO)[C@@H](O)[C@H](O)[C@H]1O)[C@H]1CC[C@]2(C)[C@@H]1[C@H](O)C[C@@H]1[C@@]3(C)CC[C@H](O)C(C)(C)[C@@H]3[C@@H](O[C@@H]3O[C@H](CO)[C@@H](O)[C@H](O)[C@H]3O[C@@H]3O[C@@H](C)[C@H](O)[C@@H](O)[C@H]3O)C[C@]12C [ginsenoside Re] ?
Response: 0.081
